target or system: Human CD4 on CD4+CD25+ regulatory T cells of healthy donors (human, UniProt P01730 26-458)
assay protocol: cell-based or functional assay
Exercise: state measured % Inh2 for each of the binders provided.
Numbers only, in %.

A selection of reference data follows.
LC G33A HC R33K (antibody, V domains shown) VH: EEQLVESGGGLVKPGGSLRLSCAASGFSFSDCKMYWLRQAPGKGLEWIGVISVKSENYGANYAESVRGRFTISRDDSKNTVYLQMNSLKTEDTAVYYCSASYYRYDVGAWFAYWGQGTLVTVSS VL: DIVMTQSPDSLAVSLGERATINCRASKSVSTSAYSYIYWYQQKPGQPPKLLIYLASILESGVPDRFSGSGSGTDFTLTISSLQAEDVAVYYCQHSRELPWTFGQGTKVEIKR	7.9
LC master HC R33K-A63G (antibody, V domains shown) VH: EEQLVESGGGLVKPGGSLRLSCAASGFSFSDCKMYWLRQAPGKGLEWIGVISVKSENYGANYGESVRGRFTISRDDSKNTVYLQMNSLKTEDTAVYYCSASYYRYDVGAWFAYWGQGTLVTVSS VL: DIVMTQSPDSLAVSLGERATINCRASKSVSTSGYSYIYWYQQKPGQPPKLLIYLASILESGVPDRFSGSGSGTDFTLTISSLQAEDVAVYYCQHSRELPWTFGQGTKVEIKR	21.5

For every item below, please supply its % Inh2.
1. LC master HC R33K (antibody, V domains shown) VH: EEQLVESGGGLVKPGGSLRLSCAASGFSFSDCKMYWLRQAPGKGLEWIGVISVKSENYGANYAESVRGRFTISRDDSKNTVYLQMNSLKTEDTAVYYCSASYYRYDVGAWFAYWGQGTLVTVSS VL: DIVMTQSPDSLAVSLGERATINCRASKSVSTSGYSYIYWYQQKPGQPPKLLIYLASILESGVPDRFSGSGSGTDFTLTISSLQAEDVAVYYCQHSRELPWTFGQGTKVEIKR
2. LC L98I HC R33K (antibody, V domains shown) VH: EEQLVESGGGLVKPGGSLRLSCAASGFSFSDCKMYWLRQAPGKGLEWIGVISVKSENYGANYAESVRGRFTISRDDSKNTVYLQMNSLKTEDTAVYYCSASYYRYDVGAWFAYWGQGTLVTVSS VL: DIVMTQSPDSLAVSLGERATINCRASKSVSTSGYSYIYWYQQKPGQPPKLLIYLASILESGVPDRFSGSGSGTDFTLTISSLQAEDVAVYYCQHSREIPWTFGQGTKVEIKR
3. LC A55G HC R33K (antibody, V domains shown) VH: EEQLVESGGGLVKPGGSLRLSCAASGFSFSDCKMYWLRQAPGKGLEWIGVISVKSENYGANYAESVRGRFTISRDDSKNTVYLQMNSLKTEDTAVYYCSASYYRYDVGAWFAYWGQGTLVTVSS VL: DIVMTQSPDSLAVSLGERATINCRASKSVSTSGYSYIYWYQQKPGQPPKLLIYLGSILESGVPDRFSGSGSGTDFTLTISSLQAEDVAVYYCQHSRELPWTFGQGTKVEIKR

1: 18.8; 2: 24.3; 3: 6.4

For every item below, please supply its % Inh2.
1. LC master HC S101T (antibody, V domains shown) VH: EEQLVESGGGLVKPGGSLRLSCAASGFSFSDCRMYWLRQAPGKGLEWIGVISVKSENYGANYAESVRGRFTISRDDSKNTVYLQMNSLKTEDTAVYYCSATYYRYDVGAWFAYWGQGTLVTVSS VL: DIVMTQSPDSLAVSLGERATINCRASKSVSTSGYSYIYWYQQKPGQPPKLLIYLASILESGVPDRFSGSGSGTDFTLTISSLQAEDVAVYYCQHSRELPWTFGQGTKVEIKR
2. BT61 Lot 52690 (antibody, human IgG1, kappa, V domains shown) VH: EEQLVESGGGLVKPGGSLRLSCAASGFSFSDCRMYWLRQAPGKGLEWIGVISVKSENYGANYAESVRGRFTISRDDSKNTVYLQMNSLKTEDTAVYYCSASYYRYDVGAWFAYWGQGTLVTVSS VL: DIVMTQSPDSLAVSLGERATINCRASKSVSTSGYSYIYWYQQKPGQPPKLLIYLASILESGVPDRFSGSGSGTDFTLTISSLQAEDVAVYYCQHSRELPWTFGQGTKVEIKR
3. LC master HC master (antibody, human IgG1, kappa, V domains shown) VH: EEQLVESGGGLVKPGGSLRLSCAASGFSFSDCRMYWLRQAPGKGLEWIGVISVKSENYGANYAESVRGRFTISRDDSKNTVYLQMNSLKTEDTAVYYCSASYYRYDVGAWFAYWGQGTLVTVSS VL: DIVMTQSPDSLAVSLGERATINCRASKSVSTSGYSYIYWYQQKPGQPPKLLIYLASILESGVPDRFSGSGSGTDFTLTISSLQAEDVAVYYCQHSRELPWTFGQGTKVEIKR

1: -3.6; 2: 24.1; 3: 25.4
